Test system: SF-268 CNS
assay: NCI-60 one-dose screen, 48 h
experimental_parameters: 10 µM unless noted
The panel holds about 83,000 compounds, 20% with a hit somewhere; the sample as a whole holds those more often. Activity calls are given as the source filed them. How the source made its calls: active means growth percent below 10; inactive means the rest.
Outcome codes: true for active, false for inactive

molecule: COc1ccc(C2CC(c3ccccc3)=NN2c2nc(C)c(C(C)=O)s2)cc1 (stereo not given)
class_assignment: false
--
molecule: CCOC(=O)C1=C(C)NC(SCc2nnc(-c3ccc(Cl)cc3)o2)=NC1c1ccc(Cl)cc1Cl (stereo not given)
class_assignment: false
--
molecule: C(=C\c1nc2ccccc2[nH]1)/c1nc2ccccc2[nH]1
class_assignment: false
--
molecule: CCNCCNc1cc(C2CCCC2)c(C#N)c2nc3ccccc3n12
class_assignment: false
--
molecule: Cl.Fc1c[c-]c(-c2ccccn2)c(F)c1.[Pt].c1ccc(P(c2ccccc2)C([PH+](c2ccccc2)c2ccccc2)[PH+](c2ccccc2)c2ccccc2)cc1
class_assignment: false
--
molecule: COc1cc(-c2ccc(N=Nc3c(O)c(C(=O)Nc4ccccc4OC)cc4ccccc34)c(OC)c2)ccc1N=Nc1c(O)c(C(=O)Nc2ccccc2OC)cc2ccccc12
class_assignment: false
--
molecule: CC[C@@H](C[C@H](CCO)c1ccccc1)c1cc2ccccc2o1
class_assignment: false
--
molecule: COc1cc2c(O)n(CCCn3ccnc3)c3c4cnc5cccc(c(=O)c3c2cc1OC)c54
class_assignment: false
--
molecule: O=C(O)CC1Sc2ccccc2NC1=O (stereo not given)
class_assignment: false
--
molecule: CCN(CC)CCCNC(=O)c1ccc(N)cc1
class_assignment: false
--
molecule: NS(=O)(=O)Oc1ccc(NC(=O)C23CC4CC(CC(C4)C2)C3)cc1Cl
class_assignment: false
--
molecule: N=C(N)c1ccc(-c2ccc(-c3ccc(Cl)cc3Cl)o2)nc1
class_assignment: false
--
molecule: O=C1Nc2ccc(Cl)cc2/C1=N/N=C/c1c[nH]c2ccccc12
class_assignment: false
--
molecule: O=C(CC12CC3CC(CC(C3)C1)C2)NCCOCCOCCNC(=O)c1cc2c(o1)C(=O)c1ccccc1C2=O
class_assignment: true
--
molecule: CSc1nc(N)c(CNC(C)c2ccccc2)c(=O)n1C (stereo not given)
class_assignment: false
--
molecule: CN(C)c1ccc2cc(-c3ccccc3F)c(N)nc2c1
class_assignment: false
--
molecule: N#Cc1c(N)n2c(nc1=Nc1ccc([N+](=O)[O-])cc1)sc1cc(Cl)ccc12
class_assignment: false
--
molecule: Nc1nc(I)c2ncn(C3OC(CO)C(O)C3O)c2n1 (stereo not given)
class_assignment: false
--
molecule: CN=C1C=CC(=C(c2ccc(N(C)C)cc2)c2ccc(N(C)C)cc2)C=C1
class_assignment: true
--
molecule: CCCCCOC(=O)c1ccc(NC(=O)CNCC(C)C)cc1
class_assignment: false
--
molecule: N#C/C(=C\c1ccc(Br)cc1)n1nnc2ccccc21
class_assignment: false
--
molecule: COc1cc(-c2ccc(-c3ccc(C(=N)N)nc3)s2)cc(OC)c1OC
class_assignment: false
--
molecule: NS(=O)(=O)c1cn(-c2ncnc3nc[nH]c23)ccc1=O
class_assignment: false
--
molecule: COc1ccc(/C=C2\COc3ccc(O)c(O)c3C2=O)c(OC)c1
class_assignment: false
--
molecule: CCc1nc2ccccc2[nH]1
class_assignment: false
--
molecule: Clc1cnc(Nc2ccc(OCCN3CCCC3)cc2)nc1NCc1ccco1
class_assignment: false
--
molecule: CC(C)n1nc(C#Cc2cccc(O)c2)c2c(N)ncnc21
class_assignment: true
--
molecule: C=CCOc1cccc(/C=C2\SC(=Nc3ccc(O)cc3)NC2=O)c1
class_assignment: false
--
molecule: C=C(C=O)C1CCC2(C(=O)O)CCC3(C)C(CCC4C5(C)CCC(O)C(C)(C)C5CCC43C)C12 (stereo not given)
class_assignment: false
--
molecule: COc1ccc(Cn2cnc3cc(C(=O)Nc4cccc5ccccc45)ccc32)c(OC)c1
class_assignment: false
--
molecule: Cc1csc(NC(=O)c2sc3nc(-c4cccs4)ccc3c2N)n1
class_assignment: false
--
molecule: C[C@@H]1C(=O)N(C[C@H](Cc2ccccc2)NC(=O)OCc2ccccc2)[C@]1(Cc1ccccc1)C(=O)OC(C)(C)C
class_assignment: false
--
molecule: C=C1c2c(C)nn(-c3ccc(O)cc3)c2N(C)C23C[C@@H]1C1(C)c4c(C)nn(-c5ccc(O)cc5)c4N(C)C(C)(C[C@H]12)C3 (stereo not given in full)
class_assignment: false
--
molecule: N#Cc1c(-c2ccc(C(F)(F)F)cc2)cc(N2CC(O)C2)n2c1nc1ccccc12
class_assignment: false
--
molecule: N#Cc1c(Oc2ccc([N+](=O)[O-])cc2)nc2sc3cc(Cl)ccc3n2c1=N
class_assignment: false
--
molecule: CN(CCCCCCCCNc1ccnc2ccccc12)Cc1ccc(-c2ccc(-c3ccc(C#N)cc3)s2)cc1
class_assignment: true
--
molecule: C=C1C(=O)O[C@H]2[C@H]1CC/C(COC(=O)/C=C\C(=O)NCc1ccc(Cn3c(=O)sn(-c4ccc(Cl)cc4)c3=O)cc1)=C\CC[C@@]1(C)O[C@@H]21
class_assignment: true
--
molecule: CCCCCCCCc1cc[n+](CC(=O)c2ccc(Br)cc2)cc1
class_assignment: false
--
molecule: COc1cc2c(=O)n(CCCn3ccnc3)c3c4cc5c(cc4ccc3c2cc1OC)OCO5
class_assignment: false
--
molecule: COc1ccc(/C(C)=C(\c2ccc(Cl)cc2)c2ccc(OCCCN(C)C)cc2)cc1F
class_assignment: false
